Test system: S.viridans group
protocol-summary: In vitro activity against selected species (MIC50, MIC90, range)
Type: cell-based
condition-description: Streptococcus viridans
measured-property: MIC90 (µg/mL)

INSERT INTO results (molecule, measured_property, quantitative_result) VALUES
  ('CON1CC/C(=C\C2=C(C(=O)O)N3C(=O)[C@@H](NC(=O)/C(=N\O)c4csc(N)n4)[C@H]3SC2)C1=O', 'MIC90', 2),
  ('Nc1nc(/C(=N/O)C(=O)N[C@@H]2C(=O)N3C(C(=O)O)=C(/C=C4\CCN(C5CC5)C4=O)CS[C@H]23)cs1', 'MIC90', 2),
  ('CC(C)(C)N1CC/C(=C\C2=C(C(=O)O)N3C(=O)[C@@H](NC(=O)/C(=N\O)c4csc(N)n4)[C@H]3SC2)C1=O', 'MIC90', 4),
  ('Nc1nc(/C(=N/O)C(=O)N[C@@H]2C(=O)N3C(C(=O)O)=C(/C=C4\CCN(CC(F)(F)F)C4=O)CS[C@H]23)cs1', 'MIC90', 2);

P. COc1ccc(N2CC/C(=C\C3=C(C(=O)O)N4C(=O)[C@@H](NC(=O)/C(=N\O)c5csc(N)n5)[C@H]4SC3)C2=O)cc1
Q. C=CC1=C(C(=O)O)N2C(=O)[C@@H](NC(=O)/C(=N\O)c3csc(N)n3)[C@H]2SC1 [Cefdinir, reference compound]
Request: Looking at P and Q , which one comes out lower in MIC90 terms? Returns: label corresponding to the selected item.
Result: P

----------
Test system: H.influenzae 1
protocol-summary: Antibacterial spectrum (MIC), agar dilution
Assay type: cell-based
condition-description: Haemophilus influenzae, read-out: MIC
measured-property: MIC (µg/mL)

INSERT INTO assay_data (molecule, measured_property, quantitative_result) VALUES
  ('Nc1nc(/C(=N/O)C(=O)N[C@@H]2C(=O)N3C(C(=O)O)=C(/C=C4\CCN(CC5CC5)C4=O)CS[C@H]23)cs1 [N]', 'MIC', 0.25),
  ('Nc1nc(/C(=N/O)C(=O)N[C@@H]2C(=O)N3C(C(=O)O)=C(/C=C4\CCN(CCF)C4=O)CS[C@H]23)cs1 [F]', 'MIC', 0.12);

A. C=CCN1CC/C(=C\C2=C(C(=O)O)N3C(=O)[C@@H](NC(=O)/C(=N\O)c4csc(N)n4)[C@H]3SC2)C1=O [L]
B. CC(C)(C)N1CC/C(=C\C2=C(C(=O)O)N3C(=O)[C@@H](NC(=O)/C(=N\O)c4csc(N)n4)[C@H]3SC2)C1=O [J]
Request: Which item exceeds the other in MIC, A or B ? State your choice using its label.
Result: A
(A: 0.5 µg/mL, B: 0.25 µg/mL)

----------
Test system: E.faecalis
protocol-summary: In vitro activity against selected species (MIC50, MIC90, range)
Format: cell-based
condition-description: Enterococcus faecalis, medium MHA
measured-property: MIC50 (µg/mL)

INSERT INTO results (compound, measured_property, quantitative_result) VALUES
  ('Nc1nc(/C(=N/O)C(=O)N[C@@H]2C(=O)N3C(C(=O)O)=C(/C=C4\CCN(CC(F)(F)F)C4=O)CS[C@H]23)cs1', 'MIC50', 1);

P. C=CC1=C(C(=O)O)N2C(=O)[C@@H](NC(=O)/C(=N\O)c3csc(N)n3)[C@H]2SC1 [Cefdinir, reference compound]
Q. Nc1nc(/C(=N/O)C(=O)N[C@@H]2C(=O)N3C(C(=O)O)=C(/C=C4\CCN(c5ccccc5)C4=O)CS[C@H]23)cs1
Request: Which one would you say has the larger MIC50 value: P , or Q ? Lab note: record the label of whichever item you select.
Result: P

----------
Tested on: S.pneumoniae PEN-R
protocol-summary: In vitro activity against selected species (MIC50, MIC90, range)
Assay type: cell-based
condition-description: Streptococcus pneumoniae, medium IsoB + 20% serum
measured-property: MIC50 (µg/mL)

A. Nc1nc(/C(=N/O)C(=O)N[C@@H]2C(=O)N3C(C(=O)O)=C(/C=C4\CCN(CC(F)(F)F)C4=O)CS[C@H]23)cs1 [E]
B. C=CC1=C(C(=O)O)N2C(=O)[C@@H](NC(=O)/C(=N\O)c3csc(N)n3)[C@H]2SC1 [Cefdinir, reference compound]
C. COc1ccc(N2CC/C(=C\C3=C(C(=O)O)N4C(=O)[C@@H](NC(=O)/C(=N\O)c5csc(N)n5)[C@H]4SC3)C2=O)cc1 [I]
Request: Please rank everything listed above by MIC50, with the minimum value first. # list labels per requested ordering
Result: C, A, B
(C: 0.25 µg/mL, A: 0.5 µg/mL, B: 4 µg/mL)

a. Nc1nc(/C(=N/O)C(=O)N[C@@H]2C(=O)N3C(C(=O)O)=C(/C=C4\CCN(C5CC5)C4=O)CS[C@H]23)cs1 [D]
b. CO/N=C(\C(=O)N[C@@H]1C(=O)N2C(C(=O)O)=C(CSc3nc(=O)c(=O)[nH]n3C)CS[C@H]12)c1csc(N)n1 [Ceftriaxone, reference compound]
Request: Returns: the argument ( a or b ) having the larger MIC50. Identify your pick by its label.
Result: b
(b: 4 µg/mL, a: 0.5 µg/mL)

----------
System: S.pneumoniae PEN-R
protocol-summary: In vitro activity against selected species (MIC50, MIC90, range)
Format: cell-based
condition-description: Streptococcus pneumoniae, medium IsoB (Isosensitest Broth)
measured-property: MIC50 (µg/mL)

INSERT INTO assay_data (compound, quantitative_result) VALUES
  ('C=CC1=C(C(=O)O)N2C(=O)[C@@H](NC(=O)/C(=N\O)c3csc(N)n3)[C@H]2SC1 [Cefdinir, reference compound]', 2),
  ('Nc1nc(/C(=N/O)C(=O)N[C@@H]2C(=O)N3C(C(=O)O)=C(/C=C4\CCN(C5CC5)C4=O)CS[C@H]23)cs1', 0.25),
  ('Nc1nc(/C(=N/O)C(=O)N[C@@H]2C(=O)N3C(C(=O)O)=C(/C=C4\CCN(CC(F)(F)F)C4=O)CS[C@H]23)cs1', 0.25);

a. CC(C)(C)N1CC/C(=C\C2=C(C(=O)O)N3C(=O)[C@@H](NC(=O)/C(=N\O)c4csc(N)n4)[C@H]3SC2)C1=O
b. CO/N=C(\C(=O)N[C@@H]1C(=O)N2C(C(=O)O)=C(CSc3nc(=O)c(=O)[nH]n3C)CS[C@H]12)c1csc(N)n1 [Ceftriaxone, reference compound]
Request: Between the entries labeled a and b , whose measured MIC50 is lower? I would appreciate it if you answered with the label of your choice.
Result: a

----------
// reported MIC per item
Test system: S.pneumoniae Q19
protocol-summary: Antibacterial spectrum (MIC), agar dilution
Type: cell-based
condition-description: Streptococcus pneumoniae, read-out: MIC

INSERT INTO measurements (structure_as_smiles, result) VALUES
  ('C#CCN1CC/C(=C\C2=C(C(=O)O)N3C(=O)[C@@H](NC(=O)/C(=N\O)c4csc(N)n4)[C@H]3SC2)C1=O', '≤ 0.06 µg/mL'),
  ('Nc1nc(/C(=N/O)C(=O)N[C@@H]2C(=O)N3C(C(=O)O)=C(/C=C4\CCN(CCF)C4=O)CS[C@H]23)cs1', '≤ 0.06 µg/mL'),
  ('Nc1nc(/C(=N/O)C(=O)N[C@@H]2C(=O)N3C(C(=O)O)=C(/C=C4\CCN(c5ccccc5)C4=O)CS[C@H]23)cs1', '0.12 µg/mL'),
  ('COc1ccc(N2CC/C(=C\C3=C(C(=O)O)N4C(=O)[C@@H](NC(=O)/C(=N\O)c5csc(N)n5)[C@H]4SC3)C2=O)cc1', '≤ 0.06 µg/mL'),
  ('Nc1nc(/C(=N/O)C(=O)N[C@@H]2C(=O)N3C(C(=O)O)=C(/C=C4\CCN(c5cnccn5)C4=O)CS[C@H]23)cs1', '0.12 µg/mL'),
  ('Nc1nc(/C(=N/O)C(=O)N[C@@H]2C(=O)N3C(C(=O)O)=C(/C=C4\CCN(CC5CC5)C4=O)CS[C@H]23)cs1', '≤ 0.06 µg/mL');

Request: Report measured MIC; entry is C=CCN1CC/C(=C\C2=C(C(=O)O)N3C(=O)[C@@H](NC(=O)/C(=N\O)c4csc(N)n4)[C@H]3SC2)C1=O
Result: ≤ 0.06 µg/mL

----------
Test system: S.aureus 734 MRSA
protocol-summary: Antibacterial spectrum (MIC), agar dilution
Format: cell-based
condition-description: Staphylococcus aureus, read-out: MIC
measured-property: MIC (µg/mL)

INSERT INTO measurements (structure_as_smiles, quantitative_result) VALUES
  ('Nc1nc(/C(=N/O)C(=O)N[C@@H]2C(=O)N3C(C(=O)O)=C(/C=C4\CCN(CCF)C4=O)CS[C@H]23)cs1', 8),
  ('COc1ccc(N2CC/C(=C\C3=C(C(=O)O)N4C(=O)[C@@H](NC(=O)/C(=N\O)c5csc(N)n5)[C@H]4SC3)C2=O)cc1', 8);

P. Nc1nc(/C(=N/O)C(=O)N[C@@H]2C(=O)N3C(C(=O)O)=C(/C=C4\CCN(CC(F)(F)F)C4=O)CS[C@H]23)cs1
Q. CC(C)(C)N1CC/C(=C\C2=C(C(=O)O)N3C(=O)[C@@H](NC(=O)/C(=N\O)c4csc(N)n4)[C@H]3SC2)C1=O
Request: Which of the two items, P and Q , has the greater recorded MIC? Reply with the label of the item you choose.
Result: Q
(Q: 16 µg/mL, P: 8 µg/mL)
